# Tested on: human prostate PC-3 cancer cell line
# ASSAY_METHOD_TEXT: In vitro cytotoxic screening (MTT assay), PC-3
# Assay type: cell-based
# CONDITION_CONTEXT: 100 µM; average ± standard deviation
MEASURE_NAME: Percentage cytotoxicity on PC-3 (%)
Give bare numbers, in %.

Please review the following examples before continuing.
CC(=O)C/C(C)=N/n1c(N[C@@H]2O[C@H](COC(C)=O)[C@@H](OC(C)=O)[C@H](OC(C)=O)[C@H]2OC(C)=O)nc2sc3c(c2c1=O)CCC3	5.6
O=c1c2c3c(sc2nc2[nH]c(-c4c5ccccc5cc5ccccc45)nn12)CCC3 [Compound 10e]	75.9
O=c1c2c3c(sc2nc2[nH]c(-c4ccc(Br)cc4)nn12)CCC3 [Compound 10b]	41.4
O=c1c2c3c(sc2nc2[nH]c(-c4ccc([N+](=O)[O-])cc4)nn12)CCC3 [Compound 10c]	54.7
O=c1c2c3c(sc2nc2nc([C@H](O)[C@@H](O)[C@H](O)[C@H](O)CO)[nH]n12)CCC3 [Compound 11a]	33.9
CC(=O)C/C(C)=N/n1c(N)nc2sc3c(c2c1=O)CCC3	0.0

# return Percentage cytotoxicity on PC-3 for each item in the list
1. O=c1c2c3c(sc2nc2nc([C@@H](O)[C@H](O)[C@H](O)CO)[nH]n12)CCC3 [Compound 11d]
2. CC(=O)OC[C@H]1O[C@@H](n2cnn3c(=O)c4c5c(sc4nc23)CCC5)[C@H](OC(C)=O)[C@@H](OC(C)=O)[C@@H]1OC(C)=O

Response:
1. 25.3
2. 9.5

# return Percentage cytotoxicity on PC-3 for each item in the list
1. O=c1c2c3c(sc2nc2[nH]cnn12)CCC3
2. CCOC(=O)Cc1nn2c(=O)c3c4c(sc3nc2[nH]1)CCC4
3. Cc1nn2c(=O)c3c4c(sc3nc2[nH]1)CCC4
4. O=c1c2c3c(sc2nc2nc([C@H](O)[C@@H](O)[C@@H](O)[C@H](O)CO)[nH]n12)CCC3 [Compound 11b]
5. COc1ccc(-c2nn3c(=O)c4c5c(sc4nc3n2[C@@H]2O[C@H](COC(C)=O)[C@@H](OC(C)=O)[C@H](OC(C)=O)[C@H]2OC(C)=O)CCC5)cc1
6. CC(=O)OC[C@@H](OC(C)=O)[C@H](OC(C)=O)[C@H](OC(C)=O)[C@@H](OC(C)=O)c1nc2nc3sc4c(c3c(=O)n2[nH]1)CCC4 [Compound 12b]

Response:
1: 11.3; 2: 15.1; 3: 0.0; 4: 12.7; 5: 14.5; 6: 20.6

Query: Recorded Percentage cytotoxicity on PC-3 of COc1ccc(-c2nn3c(=O)c4c5c(sc4nc3[nH]2)CCC5)cc1 [Compound 10d] , please.
Response: 36.4

====

# Test system: human prostate PC-3 cancer cell line
# ASSAY_METHOD_TEXT: In vitro cytotoxic screening (MTT assay), PC-3
# Assay type: cell-based
# CONDITION_CONTEXT: 12.5 µM; average ± standard deviation
# Description: Using human breast MCF-7, colorectal HCT-116, and prostate PC-3 cancer cell lines, preliminary antiproliferative effectiveness of cyclopenta[4,5]thieno[2,3-d][1,2,4]triazolo[1,5-a]pyrimidin-9(6H)-ones 4–16 was established in vitro through MTT assay at different concentrations (100, 50, 25 and 12.5 μM) (Figure 2). […]
MEASURE_NAME: Percentage cytotoxicity on PC-3 (%)
Numbers only, in %.

CC(=O)C/C(C)=N/n1c(N)nc2sc3c(c2c1=O)CCC3	0.0
CC(=O)OC[C@H]1O[C@@H](n2cnn3c(=O)c4c5c(sc4nc23)CCC5)[C@H](OC(C)=O)[C@@H](OC(C)=O)[C@@H]1OC(C)=O	0.0
O=c1c2c3c(sc2nc2nc([C@H](O)[C@@H](O)[C@@H](O)[C@H](O)CO)[nH]n12)CCC3 [Compound 11b]	0.0

Query: Recorded Percentage cytotoxicity on PC-3 of O=c1c2c3c(sc2nc2[nH]c(-c4c5ccccc5cc5ccccc45)nn12)CCC3 [Compound 10e] , please.
Response: 29.6
